System: UACC-257 melanoma
Protocol: NCI tumour cell line growth inhibition, 48 h
Documented TGI across a set of compounds

Please review the entries below; each comes with its answer.
{"Compound": "O=c1[nH]nc(Cc2ccccc2)n1/N=C/c1ccccc1Cl", "Target under test": "UACC-257 melanoma", "Reported measurement": "> 100 µM"}
{"Compound": "O=C(c1ccco1)N(C(=S)N1CCN(c2ccccn2)CC1)C1CCCCC1", "Target under test": "UACC-257 melanoma", "Reported measurement": "> 100 µM"}
{"Compound": "Cc1cc(C)nc(NS(=O)(=O)c2ccc(Nc3c4ccc(Cl)cc4nc4c(C(=O)Nc5ccc(S(=O)(=O)N=C(N)N)cc5)cccc34)cc2)n1", "Target under test": "UACC-257 melanoma", "Reported measurement": "> 100 µM"}
{"Compound": "Nc1cn(Cc2ccccc2)c2nc(/C=C3/C=CC=CC3=O)c(O)n12", "Target under test": "UACC-257 melanoma", "Reported measurement": "> 100 µM"}

Lookup: Any idea what its TGI is? The compound is "O=c1[nH]c2c3ccccc3ccc2c2cc3c(cc12)OCO3"
Found: > 100 µM

Lookup: Would you kindly repeat that for "O=c1[nH]ccc2nc(N3CCC(O)CC3)nc(Nc3cccc(C(F)(F)F)c3)c12" ?
Found: 13 µM

Lookup: # repeat for "CC[O-].CC[O-].O=C1C(c2ccccc2)=C([O-])c2ccccc21.O=C1C(c2ccccc2)=C([O-])c2ccccc21.[Ti+4]"
Found: > 100 µM

Lookup: And what about the compound "COc1cc2c(Oc3ccc4[nH]c(C)cc4c3F)ccnc2cc1OCC1(N)CC1" ?
Found: 3.63 µM

Lookup: Repeat for the following compound: COC(=O)C12CC(c3ccccc31)C1C(=O)OC(=O)C12 (centres undefined)
Found: > 100 µM
